Quick list: pIC50 per entry.
biological target: human Cereblon WT GST-tagged protein (Homo sapiens, UniProt Q96SW2); construct: purchased CISBIO 64BDCRBNPEH; test: CRBN-binding affinity by HTRF (CEREBLON BINDING kit); details: HTRF inhibitory activity, CEREBLON BINDING kit; read-out: HTRF IC50
Sequence (Q96SW2 whole entry): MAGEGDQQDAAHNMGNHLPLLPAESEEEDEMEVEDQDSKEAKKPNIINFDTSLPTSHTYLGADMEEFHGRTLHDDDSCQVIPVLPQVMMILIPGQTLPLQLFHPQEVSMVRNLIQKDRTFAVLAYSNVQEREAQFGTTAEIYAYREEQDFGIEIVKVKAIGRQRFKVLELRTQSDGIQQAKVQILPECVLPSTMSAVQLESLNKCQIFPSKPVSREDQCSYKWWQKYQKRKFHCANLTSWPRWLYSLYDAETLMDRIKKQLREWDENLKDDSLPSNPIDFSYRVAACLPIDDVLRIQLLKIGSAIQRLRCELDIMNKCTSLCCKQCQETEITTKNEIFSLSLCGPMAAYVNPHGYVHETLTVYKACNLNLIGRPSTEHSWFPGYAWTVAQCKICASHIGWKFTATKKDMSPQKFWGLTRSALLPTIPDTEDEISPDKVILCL
pIC50: −log10 of the molar value.

Recorded results for 2 compounds are shown here.
[[record]]
compound = "O=C1CCC(N2Cc3cc(CN4CCN(c5nccc(Cl)c5F)CC4)ccc3C2=O)C(=O)N1 (centres unmarked)"
targetdesc = "human Cereblon WT GST-tagged protein (Homo sapiens, UniProt Q96SW2)"
measuredattribute = "pIC50"
valuereported = "6.00 to 6.30"

[[record]]
compound = "O=C1CCC(N2Cc3cc(CN4CCN(c5cccnc5)CC4)ccc3C2=O)C(=O)N1 (centres unmarked)"
targetdesc = "human Cereblon WT GST-tagged protein (Homo sapiens, UniProt Q96SW2)"
measuredattribute = "pIC50"
valuereported = "6.00 to 6.30"


Give reported pIC50 value for O=C1CCC(N2Cc3cc(CN4CCN(c5ccncc5Cl)CC4)ccc3C2=O)C(=O)N1 (centres unmarked)
6.00 to 6.30

* * *

IC50 overview
tested on: NCI-H1975; experiment: Tumor cell proliferation inhibition (CellTiter-Meiluncell Luminescent Cell Viability Assay), NCI-H1975; conditions: Homo sapiens, NCI-H1975, 96 h, read-out: inhibitory activity (IC50, nM) against tumor cells proliferation, H1975

[[record]]
compound = "O=C1CCC(N2Cc3cc(CN4CC=C(c5cncc(Cl)c5)CC4)ccc3C2=O)C(=O)N1 (centres unmarked)"
measuredattribute = "IC50"
valuereported = "10 to 50 nM"

[[record]]
compound = "Cn1cc(C2=CCN(Cc3ccc4c(c3)CN(C3CCC(=O)NC3=O)C4=O)CC2)c2ccc(F)cc21 (centres unmarked)"
measuredattribute = "IC50"
valuereported = "10 to 50 nM"

[[record]]
compound = "O=C1CCC(N2Cc3cc(CN4CCN(c5nccc(Cl)c5Br)CC4)ccc3C2=O)C(=O)N1 (centres unmarked)"
measuredattribute = "IC50"
valuereported = "100 to 500 nM"

[[record]]
compound = "O=C1CCC(N2Cc3cc(CN4CC(=C5CCOc6cc(F)ccc65)C4)ccc3C2=O)C(=O)N1 (centres unmarked)"
measuredattribute = "IC50"
valuereported = "50 to 100 nM"

[[record]]
compound = "Cc1nc(C2=CCN(Cc3ccc4c(c3)CN(C3CCC(=O)NC3=O)C4=O)CC2)c2ccsc2n1 (centres unmarked)"
measuredattribute = "IC50"
valuereported = "10 to 50 nM"


Give me measured IC50, please, for this compound: O=C1CCC(N2Cc3cc(CN4CCN(c5cccc(F)c5)CC4)ccc3C2=O)C(=O)N1 (centres unmarked)
100 to 500 nM

Query IC50 for Cc1cc(N2CCN(Cc3ccc4c(c3)CN(C3CCC(=O)NC3=O)C4=O)CC2)cs1 (centres unmarked)
100 to 500 nM

Answer with the recorded IC50 for the compound listed here: O=C1CCC(N2Cc3cc(CN4CCN(c5ccc(F)cc5F)CC4)ccc3C2=O)C(=O)N1 (centres unmarked)
500 to 1000 nM

* * *

target: human Cereblon WT GST-tagged protein (Homo sapiens); construct: purchased CISBIO 64BDCRBNPEH; assay: CRBN-binding affinity by HTRF (CEREBLON BINDING kit)
measuredAttribute: IC50

Give the value of IC50 reported for the following: O=C1CCC(N2Cc3cc(CN4CCC(N5C(=O)COc6cc(F)ccc65)CC4)ccc3C2=O)C(=O)N1 (stereo not shown)
< 500 nM

* * *

Measured IC50 of individual entries
test system: Human acute T lymphocytic leukemia cells (Molt-4); experiment: Tumor cell proliferation inhibition (CellTiter-Meiluncell Luminescent Cell Viability Assay), Molt-4; settings: MOLT-4, read-out: inhibitory activity (IC50, nM) against tumor cells proliferation, Molt-4

Solved entries (count: 3):
[[record]]
molecule = "Cc1nc(C2=CCN(Cc3ccc4c(c3)C(=O)N(C3CCC(=O)NC3=O)C4=O)CC2)c2ccsc2n1 (stereo not shown) [GT-06678]"
valuereported = "100 to 500 nM"

[[record]]
molecule = "O=C1CCC(N2C(=O)c3ccc(CN4CCC(c5c[nH]c6cc(F)ccc56)CC4)cc3C2=O)C(=O)N1 (stereo not shown) [GT-06633]"
valuereported = "100 to 500 nM"

[[record]]
molecule = "O=C1CCC(N2C(=O)c3ccc(CN4CC=C(c5cncc(Cl)c5)CC4)cc3C2=O)C(=O)N1 (stereo not shown) [GT-06611]"
valuereported = "500 to 1000 nM"


Consider the additional molecule presented here.
# return recorded IC50 for entry Cn1cc(C2=CCN(Cc3ccc4c(c3)C(=O)N(C3CCC(=O)NC3=O)C4=O)CC2)c2ccc(F)cc21 (stereo not shown) [GT-06636]
10 to 50 nM

* * *

# pIC50 values compiled below
Biological target: human Cereblon WT GST-tagged protein (Homo sapiens)
Construct: purchased CISBIO 64BDCRBNPEH
Experiment: CRBN-binding affinity by HTRF (CEREBLON BINDING kit)
Conditions: HTRF inhibitory activity, CEREBLON BINDING kit; read-out: HTRF IC50
Protocol: The CEREBLON BINDING kits (specification: 10,000 tests; product number: Catalog # 64BDCRBNPEH; CISBIO company) was used to determine the CRBN binding ability of the compounds to be tested through a HTRF method (homogeneous time-resolved fluorescence). The specific methods are as follows: • 1. […] Specifically, diluent #9 (1X) solution was used as the diluent, and multiple concentration gradients were set. […] Then, 2.5 µL of human Cereblon WT GST-tagged protein solution was added to each well. […]
pIC50: −log10 of the molar value.

Guide cases for pIC50, answers given:
[[record]]
compound = "O=C1CCC(N2Cc3cc(CN4CC=C(c5ncnc6sc7c(c56)CCC7)CC4)ccc3C2=O)C(=O)N1 (centres unmarked)"
valuereported = "> 6.30"

[[record]]
compound = "COc1ccccc1N1CCN(Cc2ccc3c(c2)CN(C2CCC(=O)NC2=O)C3=O)CC1 (centres unmarked)"
valuereported = "6.00 to 6.30"

[[record]]
compound = "O=C1CCC(N2C(=O)c3ccc(CN4CCC(c5ncnc6scc(-c7ccccc7)c56)CC4)cc3C2=O)C(=O)N1 (centres unmarked)"
valuereported = "5.82 to 6.00"

[[record]]
compound = "O=C1CCC(N2Cc3cc(CN4CCN(c5ccnc(F)c5F)CC4)ccc3C2=O)C(=O)N1 (centres unmarked)"
valuereported = "6.00 to 6.30"

[[record]]
compound = "O=C1CCC(N2Cc3cc(CN4CCN(c5nccc(F)c5F)CC4)ccc3C2=O)C(=O)N1 (centres unmarked)"
valuereported = "5.72 to 5.82"

[[record]]
compound = "O=C1CCC(N2Cc3cc(CN4C[C@H]5C[C@@H]4CN5c4cccc(Cl)c4Cl)ccc3C2=O)C(=O)N1 (some centres unmarked)"
valuereported = "> 6.30"


For the compound Cc1sc2ncnc(C3CCN(Cc4ccc5c(c4)C(=O)N(C4CCC(=O)NC4=O)C5=O)CC3)c2c1C (centres unmarked) , give its reported pIC50.
5.72 to 5.82

Look up and report measured pIC50 for this entry: O=C1CCC(N2C(=O)c3ccc(CN4CCN(c5ccsc5)CC4)cc3C2=O)C(=O)N1 (centres unmarked)
6.00 to 6.30

* * *

molecular target: human Cereblon WT GST-tagged protein (Homo sapiens); construct: purchased CISBIO 64BDCRBNPEH; test: CRBN-binding affinity by HTRF (CEREBLON BINDING kit); conditions: HTRF inhibitory activity, CEREBLON BINDING kit; read-out: HTRF IC50
pIC50: −log10 of the molar value.
Recorded pIC50 for the following compounds

[[record]]
compound = "O=C1CCC(N2Cc3cc(CN4CCC(c5c[nH]c6cc(F)ccc56)CC4)ccc3C2=O)C(=O)N1 (centres unmarked)"
targetdesc = "human Cereblon WT GST-tagged protein (Homo sapiens)"
valuereported = "6.00 to 6.30"

[[record]]
compound = "O=C1CCC(N2Cc3cc(CN4CCN(c5ncnc6sccc56)CC4)ccc3C2=O)C(=O)N1 (centres unmarked)"
targetdesc = "human Cereblon WT GST-tagged protein (Homo sapiens)"
valuereported = "6.00 to 6.30"

[[record]]
compound = "O=C1CCC(N2Cc3c(CN4CCN(c5cccc(Cl)c5Cl)CC4)cccc3C2=O)C(=O)N1 (centres unmarked)"
targetdesc = "human Cereblon WT GST-tagged protein (Homo sapiens)"
valuereported = "6.00 to 6.30"


Retrieve pIC50 measured for O=C1CCC(N2Cc3cc(CN4CC=C(c5ncnc6sccc56)CC4)ccc3C2=O)C(=O)N1 (centres unmarked) and print it.
> 6.30

Name the recorded pIC50 of the compound listed here: Cn1cc(C2CCN(Cc3ccc4c(c3)CN(C3CCC(=O)NC3=O)C4=O)CC2)c2ccc(F)cc21 (centres unmarked)
> 6.30

For the compound Cc1nc(N2CCN(Cc3ccc4c(c3)C(=O)N(C3CCC(=O)NC3=O)C4=O)CC2)c2c(-c3ccccc3)csc2n1 (centres unmarked) , report pIC50.
5.82 to 6.00

Determine from records and report pIC50 for O=C1CCC(N2Cc3cc(CN4CC=C(c5ncnc6sc7c(c56)CCCC7)CC4)ccc3C2=O)C(=O)N1 (centres unmarked)
> 6.30

Note pIC50 for the compound shown: O=C1CCC(N2Cc3cc(CN4CC=C(c5c[nH]c6cc(F)ccc56)CC4)ccc3C2=O)C(=O)N1 (centres unmarked)
> 6.30
